Target: T1, TNFR1 (Homo sapiens, UniProt P19438)
T1 chain: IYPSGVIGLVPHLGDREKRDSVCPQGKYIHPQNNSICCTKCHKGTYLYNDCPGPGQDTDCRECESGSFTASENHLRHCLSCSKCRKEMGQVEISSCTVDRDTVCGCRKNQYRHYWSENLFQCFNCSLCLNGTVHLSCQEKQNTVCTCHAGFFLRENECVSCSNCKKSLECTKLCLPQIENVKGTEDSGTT
Assay: yeast display SC50
With a cut-off of 0.7 nM, any apparent Kd (screen) strictly below it is called YES; any apparent Kd (screen) meeting it or above is called NO.

For I49C (designed binder) MTLQELLREEALRRAEAEAFRYALELLAEKFPEQKEYLLDLAEEIESQCRSLSGVDVEDVRKFLDKEWAWVKELLAEHPAELAEVEAARAARLAELRAEVEAKVAA , is the recorded apparent Kd (screen) below the cut-off of 0.7 nM?
NO

For A88C (designed binder) MTLQELLREEALRRAEAEAFRYALELLAEKFPEQKEYLLDLAEEIESQIRSLSGVDVEDVRKFLDKEWAWVKELLAEHPAELAEVEACRAARLAELRAEVEAKVAA , is the recorded apparent Kd (screen) below the cut-off of 0.7 nM?
YES

For E16G (designed binder) MTLQELLREEALRRAGAEAFRYALELLAEKFPEQKEYLLDLAEEIESQIRSLSGVDVEDVRKFLDKEWAWVKELLAEHPAELAEVEAARAARLAELRAEVEAKVAA , is the recorded apparent Kd (screen) below the cut-off of 0.7 nM?
YES

For L82M (designed binder) MTLQELLREEALRRAEAEAFRYALELLAEKFPEQKEYLLDLAEEIESQIRSLSGVDVEDVRKFLDKEWAWVKELLAEHPAEMAEVEAARAARLAELRAEVEAKVAA , is the recorded apparent Kd (screen) below the cut-off of 0.7 nM?
YES

For K62V (designed binder) MTLQELLREEALRRAEAEAFRYALELLAEKFPEQKEYLLDLAEEIESQIRSLSGVDVEDVRVFLDKEWAWVKELLAEHPAELAEVEAARAARLAELRAEVEAKVAA , is the recorded apparent Kd (screen) below the cut-off of 0.7 nM?
YES

For D40P (designed binder) MTLQELLREEALRRAEAEAFRYALELLAEKFPEQKEYLLPLAEEIESQIRSLSGVDVEDVRKFLDKEWAWVKELLAEHPAELAEVEAARAARLAELRAEVEAKVAA , is the recorded apparent Kd (screen) below the cut-off of 0.7 nM?
NO

For A102Y (designed binder) MTLQELLREEALRRAEAEAFRYALELLAEKFPEQKEYLLDLAEEIESQIRSLSGVDVEDVRKFLDKEWAWVKELLAEHPAELAEVEAARAARLAELRAEVEYKVAA , is the recorded apparent Kd (screen) below the cut-off of 0.7 nM?
YES

For E44Y (designed binder) MTLQELLREEALRRAEAEAFRYALELLAEKFPEQKEYLLDLAEYIESQIRSLSGVDVEDVRKFLDKEWAWVKELLAEHPAELAEVEAARAARLAELRAEVEAKVAA , is the recorded apparent Kd (screen) below the cut-off of 0.7 nM?
NO

Source: paper PMC12416549
